# target-under-test: ERβ (Homo sapiens (Human), UniProt Q92731)
# Sequence (Q92731 whole entry): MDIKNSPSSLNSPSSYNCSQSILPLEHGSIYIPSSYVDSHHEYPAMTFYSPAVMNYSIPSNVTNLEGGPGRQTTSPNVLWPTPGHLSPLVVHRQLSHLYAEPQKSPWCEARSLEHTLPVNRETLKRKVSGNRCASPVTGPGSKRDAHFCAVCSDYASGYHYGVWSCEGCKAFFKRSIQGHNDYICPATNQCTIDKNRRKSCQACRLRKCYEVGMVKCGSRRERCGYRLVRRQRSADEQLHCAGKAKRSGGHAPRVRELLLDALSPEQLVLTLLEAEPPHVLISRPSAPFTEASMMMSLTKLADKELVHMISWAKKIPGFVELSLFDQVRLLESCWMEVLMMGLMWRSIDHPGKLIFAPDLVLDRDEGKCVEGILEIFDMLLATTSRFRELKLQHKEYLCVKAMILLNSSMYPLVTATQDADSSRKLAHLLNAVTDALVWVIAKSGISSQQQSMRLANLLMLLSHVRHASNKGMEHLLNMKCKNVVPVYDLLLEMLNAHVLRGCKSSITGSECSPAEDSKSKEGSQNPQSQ
# experimental-protocol: Cell-based ERβ luminescence antagonist assay (+E2)
endpoint-label: ERβ antagonist activity (qualitative)

{"columns": ["compound", "target-under-test", "assay-result"],
 "data": [
  ["C[C@]12CC[C@@H]3c4ccc(O)cc4CC[C@H]3[C@@H]1CC=C2CO", "ERβ (Homo sapiens (Human), UniProt Q92731)", "not ERβ antagonists"],
  ["C[C@@H](CCO)C1=CC[C@H]2[C@@H]3CCc4cc(O)ccc4[C@H]3CC[C@]12C", "ERβ (Homo sapiens (Human), UniProt Q92731)", "ERβ antagonist activity"],
  ["CC[C@H](C)C1=CC[C@H]2[C@@H]3CCc4cc(O)ccc4[C@H]3CC[C@]12C", "ERβ (Homo sapiens (Human), UniProt Q92731)", "ERβ antagonist activity"],
  ["CC1C[C@H](C)C2(CC[C@H]3[C@@H]4CCc5cc(O)ccc5[C@H]4CC[C@@]32C)O1 (some centres unmarked)", "ERβ (Homo sapiens (Human), UniProt Q92731)", "not ERβ antagonists"]
]}

Then there is this compound:
Per the record, OC[C@H]1CCC[C@@H](c2ccc(O)cc2)CC1 (relative stereo) has ERβ antagonist activity (qualitative) of ERβ antagonist activity

====

# target-under-test: ERα (Homo sapiens (Human), UniProt P03372)
# Sequence (P03372 whole entry): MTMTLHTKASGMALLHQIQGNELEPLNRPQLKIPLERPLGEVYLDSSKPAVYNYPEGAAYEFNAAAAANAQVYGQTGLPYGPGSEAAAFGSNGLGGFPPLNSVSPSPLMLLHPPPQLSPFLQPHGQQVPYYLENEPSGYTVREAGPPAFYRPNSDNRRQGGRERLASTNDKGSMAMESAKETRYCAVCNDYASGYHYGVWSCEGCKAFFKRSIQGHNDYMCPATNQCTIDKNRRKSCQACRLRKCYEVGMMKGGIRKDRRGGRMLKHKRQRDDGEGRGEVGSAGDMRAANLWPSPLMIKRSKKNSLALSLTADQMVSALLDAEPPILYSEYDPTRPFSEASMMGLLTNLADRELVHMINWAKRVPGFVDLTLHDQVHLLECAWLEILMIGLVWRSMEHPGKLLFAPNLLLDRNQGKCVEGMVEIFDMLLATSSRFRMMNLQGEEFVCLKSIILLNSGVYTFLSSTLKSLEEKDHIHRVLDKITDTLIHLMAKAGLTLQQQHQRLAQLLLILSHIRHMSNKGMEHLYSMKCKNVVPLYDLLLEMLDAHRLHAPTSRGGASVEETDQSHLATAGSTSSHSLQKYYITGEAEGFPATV
# experimental-protocol: Cell-based ERα luminescence antagonist assay (+E2)
# assay-conditions: read-out: ERα Antagonist (+E2); +E2
endpoint-label: IC50

Per the record, CCC1CCC(c2ccc(O)cc2)CC1 (stereo not shown) [RKP-231 IF] has IC50 of > 10 µM

====

# target-under-test: ERα (Homo sapiens (Human))
# experimental-protocol: Fluorescence polarization displacement assay (FITC-estradiol tracer)
# Type: binding
# assay-conditions: read-out: IC50 (ERα affinity, fluorescence polarization displacement assay)
pIC50: −log10 of the molar value.
endpoint-label: pIC50

{"columns": ["compound", "endpoint-label", "assay-result"],
 "data": [
  ["CC[C@H](C)C1=CC[C@H]2[C@@H]3CCc4cc(O)ccc4[C@H]3CC[C@]12C", "pIC50", "6.49 to 6.80"]
]}

Then there is this compound:
Per the record, CCCOC(=O)C1CC[C@H]2[C@@H]3CCc4cc(O)ccc4[C@H]3CC[C@]12C (some centres unmarked) has pIC50 of 6.49 to 6.80

====

# target-under-test: ERα (Homo sapiens (Human))
# experimental-protocol: Fluorescence polarization displacement assay (FITC-estradiol tracer)
# Format: binding
# assay-conditions: accurate Kd could not be obtained, estimated
endpoint-label: Kd

ERα (Homo sapiens (Human)) Kd of OC[C@H]1CCC[C@@H](c2ccc(O)cc2)CC1 (racemic) [Compound 18] is > 1 µM

====

For each entry below, report its log10 EC50 value.
# target-under-test: ERα (Homo sapiens (Human), UniProt P03372)
# experimental-protocol: Cell-based ERα luminescence (luciferase reporter) agonist assay
# assay-conditions: normalized; read-out: ERα Normalized Agonist
Values below are the log10 of the recorded EC50, with µM as the unit.

{"columns": ["compound", "log10 EC50"],
 "data": [
  ["OCCC1CCCC(c2ccc(O)cc2)CC1 (centres unmarked)", 1.65]
]}

Hi there! I need log10 EC50 for each item below, if you can.
1. OCC1CCC(c2ccc(O)cc2)CC1 (centres unmarked)
2. CCC1CCC(c2ccc(O)cc2)CC1 (centres unmarked)

Outgoing:
[2.85, 1.40]

Hi there! I need log10 EC50 for each item below, if you can.
1. OCC1CCC[C@@H](c2ccc(O)cc2)CC1 (some centres unmarked)
2. O/N=C1/CCCC(c2ccc(O)cc2)CC1 (centres unmarked)

Outgoing:
1: 1.02; 2: 2.54
